Listed below: relative viability values for each entry.
# System: NCI-H838
# Method Notes: relative viability (nuclei count vs DMSO), 5 days (fraction); higher = more cells survive
# Measurement Parameters: first compound 2.53 µM

| Compound | relative viability |
| --- | --- |
| Nc1cccc2c1CN(C1CCC(=O)NC1=O)C2=O (stereo not drawn) [Lenalidomide] + N=C(N)NC(=N)NCCc1ccccc1 [Phenformin] (partner 250 µM) | 0.689 |
| Nc1cccc2c1CN(C1CCC(=O)NC1=O)C2=O (stereo not drawn) [Lenalidomide] + O=C(c1cc(Cc2n[nH]c(=O)c3ccccc23)ccc1F)N1CCN(C(=O)C2CC2)CC1 [Olaparib] (partner 8 µM) | 0.781 |
| Nc1cccc2c1CN(C1CCC(=O)NC1=O)C2=O (stereo not drawn) [Lenalidomide] + CCNC(=O)c1noc(-c2cc(C(C)C)c(O)cc2O)c1-c1ccc(CN2CCOCC2)cc1 [Luminespib] (partner 0.01 µM) | 0.269 |
| Nc1cccc2c1CN(C1CCC(=O)NC1=O)C2=O (stereo not drawn) [Lenalidomide] + COc1cc2c(Oc3ccc(NC(=O)C4(C(=O)Nc5ccc(F)cc5)CC4)cc3F)ccnc2cc1OCCCN1CCOCC1 [Foretinib] (partner 0.25 µM) | 1.15 |
| Nc1cccc2c1CN(C1CCC(=O)NC1=O)C2=O (stereo not drawn) [Lenalidomide] + CC(C)C[C@H](NC(=O)[C@H](Cc1ccccc1)NC(=O)c1cnccn1)B(O)O [Bortezomib] (partner 0.002 µM) | 1.5 |
| Nc1cccc2c1CN(C1CCC(=O)NC1=O)C2=O (stereo not drawn) [Lenalidomide] + Cc1cc(Nc2cc(N3CCN(C)CC3)nc(Sc3ccc(NC(=O)C4CC4)cc3)n2)n[nH]1 [Tozasertib] (partner 0.1 µM) | 0.317 |
| Nc1cccc2c1CN(C1CCC(=O)NC1=O)C2=O (stereo not drawn) [Lenalidomide] + CC1(C)CCC(c2ccc(Cl)cc2)=C(CN2CCN(c3ccc(C(=O)NS(=O)(=O)c4ccc(N[C@H](CCN5CCOCC5)CSc5ccccc5)c(S(=O)(=O)C(F)(F)F)c4)cc3)CC2)C1 [Navitoclax] (partner 0.5 µM) | 1.29 |
| Nc1cccc2c1CN(C1CCC(=O)NC1=O)C2=O (stereo not drawn) [Lenalidomide] + NC(=O)Nc1cc(-c2cccc(F)c2)sc1C(=O)N[C@H]1CCCNC1 [AZD7762] (partner 0.2 µM) | 0.962 |

Origin of the recorded values: the supplement of paper PMC10307832
